FYI, the data here is from the supplement of paper PMC10724198.

Let's look at some sequences and their measured protein stability index.
- Tested on: Saccharomyces cerevisiae
- assay-overview: protein stability index of tFT-peptide fusion (C-terminal peptide) (PSI (0-1 scale)); higher = more stable (slower turnover);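 note: PSI is a weighted mean of sequencing reads over stability bins, variants kept only with over 10 reads, mCherry proximal and sfGFP distal, peptide attached via GGGS linker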
- measurement-context: genetic background: wild type; temperature: 30 C

Please review the entries below; each comes with its answer.
For SPWSIHLILLQV on Saccharomyces cerevisiae, measured protein stability index was 0.203

For PPPNSSTSPPCS on Saccharomyces cerevisiae, measured protein stability index was 0.687

For LAVVCIHAVSSF on Saccharomyces cerevisiae, measured protein stability index was 0.373

New cases:
For GLCSGTGARWLV on Saccharomyces cerevisiae, measured protein stability index was 0.516

For TRKKENERRKNG on Saccharomyces cerevisiae, measured protein stability index was 0.278

For LLLLRCLWISHA on Saccharomyces cerevisiae, measured protein stability index was 0.145

For ILFRRRLCCFLK on Saccharomyces cerevisiae, measured protein stability index was 0.396

For YVASSWRHCFII on Saccharomyces cerevisiae, measured protein stability index was 0.152

For GFFFFHGLCFFV on Saccharomyces cerevisiae, measured protein stability index was 0.355

---

- System: Saccharomyces cerevisiae
- assay-overview: protein stability index of tFT-peptide fusion (C-terminal peptide) (PSI (0-1 scale)); higher = more stable (slower turnover)
- measurement-context: genetic background: cdc53-1; temperature: 37 C
assay-metric: protein stability index
Could you keep your reply to the number by itself?

For DCRFIIFYCVMV on Saccharomyces cerevisiae, measured protein stability index was 0.5

For GRRLGLLNLLSY on Saccharomyces cerevisiae, measured protein stability index was 0.744

For GLPRASPLPIPV on Saccharomyces cerevisiae, measured protein stability index was 0.591

New cases:
For LWVMVLFFPGCS on Saccharomyces cerevisiae, measured protein stability index was 0.493

For LGGVGTLVHCFV on Saccharomyces cerevisiae, measured protein stability index was 0.635

For FVSSLLPLLTLL on Saccharomyces cerevisiae, measured protein stability index was 0.636

For AFLCVFGFCFFV on Saccharomyces cerevisiae, measured protein stability index was 0.455

For YAFYLFSRILAA on Saccharomyces cerevisiae, measured protein stability index was 0.302

For FSRPTYYFIRHS on Saccharomyces cerevisiae, measured protein stability index was 0.696

For ILLYCVLIDPYS on Saccharomyces cerevisiae, measured protein stability index was 0.263

---

- Tested on: Saccharomyces cerevisiae
- assay-overview: protein stability index of tFT-peptide fusion (C-terminal peptide) (PSI (0-1 scale)); higher = more stable (slower turnover)
- measurement-context: genetic background: wild type; temperature: 30 C
Assign TRUE to entries whose protein stability index meets or exceeds 0.7; assign FALSE to the rest.

As a guide, the following entries are already answered.
Could you please find out whether ELRFRGITRTTV has protein stability index that meets 0.7 or exceeds it? TRUE

Could you please find out whether PFRPPPPPSSPP has protein stability index that meets 0.7 or exceeds it? TRUE

Could you please find out whether PFYVEAVEKPEH has protein stability index that meets 0.7 or exceeds it? TRUE

Could you please find out whether PPRRCFPLLLFF has protein stability index that meets 0.7 or exceeds it? FALSE

Could you please find out whether FPRFACVLPAFH has protein stability index that meets 0.7 or exceeds it? FALSE

New cases:
Could you please find out whether EVCPRGIAGGVV has protein stability index that meets 0.7 or exceeds it? FALSE

Could you please find out whether RGLLLKILIASG has protein stability index that meets 0.7 or exceeds it? FALSE

Could you please find out whether PLALLHSHPPAN has protein stability index that meets 0.7 or exceeds it? FALSE

Could you please find out whether PPHPPPVTPHAS has protein stability index that meets 0.7 or exceeds it? TRUE

Could you please find out whether ALEFLLLVCRRL has protein stability index that meets 0.7 or exceeds it? FALSE

Could you please find out whether EVLFWRGVSRME has protein stability index that meets 0.7 or exceeds it? TRUE

Could you please find out whether ASPFTYPDFFFP has protein stability index that meets 0.7 or exceeds it? FALSE
